The reported numbers originate from ChEMBL document CHEMBL2029248.

Target: UniProt:Q9Y5N1
Sequence (Q9Y5N1 whole entry): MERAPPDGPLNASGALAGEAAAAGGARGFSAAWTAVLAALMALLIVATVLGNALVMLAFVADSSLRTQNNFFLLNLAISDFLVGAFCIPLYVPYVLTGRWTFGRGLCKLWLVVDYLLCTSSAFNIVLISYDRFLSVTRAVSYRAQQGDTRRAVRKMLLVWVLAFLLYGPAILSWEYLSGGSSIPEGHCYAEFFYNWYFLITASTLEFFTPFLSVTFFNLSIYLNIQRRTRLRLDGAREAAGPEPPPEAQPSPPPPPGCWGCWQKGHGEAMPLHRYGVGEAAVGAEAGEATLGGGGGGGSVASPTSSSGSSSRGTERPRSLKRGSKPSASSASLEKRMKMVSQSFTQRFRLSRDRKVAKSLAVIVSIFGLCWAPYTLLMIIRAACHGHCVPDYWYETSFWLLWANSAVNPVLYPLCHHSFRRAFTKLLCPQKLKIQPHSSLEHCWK
Experiment: Displacement of [3H]N-alpha-methylhistamine from recombinant human histamine H3 receptor expressed in HEK cell membranes after 30 mins by scintillation counting
pKi: −log10 of the molar value.
pKi reference
MEASUREMENT TYPE: pKi

| COMPOUND | MEASUREMENT TYPE | NUMERIC VALUE |
| --- | --- | --- |
| O=c1ccoc2ccc(-c3nnc(N4CCC(N5CCCCC5)CC4)s3)cc12 | pKi | 7.90 |
| O=C1COc2ccc(-c3nnc(N4CCC(N5CCCCC5)CC4)s3)cc2N1 | pKi | 7.66 |
| O=c1ccnc2c(-c3nnc(N4CCC(N5CCCCC5)CC4)s3)cccn12 | pKi | 8.68 |
| O=C(c1cccc(-c2nnc(N3CCC(N4CCCCC4)CC3)s2)c1)N1CCC1 | pKi | 7.10 |
| c1cc(-c2nnc(N3CCC(N4CCCCC4)CC3)s2)n2nccc2c1 | pKi | 8.49 |
| O=c1cccnn1-c1cccc(-c2nnc(N3CCC(N4CCCCC4)CC3)s2)c1 | pKi | 7.92 |
| O=c1ccnc2ccc(-c3nnc(N4CCC(N5CCCCC5)CC4)s3)cn12 | pKi | 7.89 |
| CC(O)c1cccc(-c2nnc(N3CCC(N4CCCCC4)CC3)s2)c1 (stereo not given) | pKi | 7.54 |
| O=C(c1cccc(-c2nnc(N3CCC(N4CCCCC4)CC3)s2)n1)N1CCC1 | pKi | 8.36 |
| O=C1Cc2cc(-c3nnc(N4CCC(N5CCCCC5)CC4)s3)ccc2N1 | pKi | 7.19 |
